src = patent US20200157194A1

Recorded Reduction in Signal from Heparin at 300 sec values for a group of binders are listed next.
Biological target: T1, recombinant human GREM1 (hGREM1-His; C-terminal 10His tagged, R&D, #5190-GR) (human, UniProt O60565 25-184)
T1 construct: range 25-184; also called recombinant human GREM1 with a C-terminal decahistidine tag
T1 sequence: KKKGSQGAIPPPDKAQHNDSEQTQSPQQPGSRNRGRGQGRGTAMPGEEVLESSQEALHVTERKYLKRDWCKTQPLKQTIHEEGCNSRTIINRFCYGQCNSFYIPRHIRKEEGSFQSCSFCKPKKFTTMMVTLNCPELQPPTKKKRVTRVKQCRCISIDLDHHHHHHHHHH
Experiment: BLI Octet, mAb captured, 100 nM GREM1 without vs with 5 uM heparin;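 also: octet Red96 biolayer interferometry at 25 °C, antibodies captured on anti-human IgG Fc biosensors, association of GREM1 measured with versus without heparin in HEPES-buffered saline, pH 7.4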
Unit nm implied. Number only.

Some binders with known Reduction in Signal from Heparin at 300 sec results, for comparison:
binder="H4H6240P (antibody, human IgG4, V domains shown, H4H prefix = human IgG4 Fc) VH: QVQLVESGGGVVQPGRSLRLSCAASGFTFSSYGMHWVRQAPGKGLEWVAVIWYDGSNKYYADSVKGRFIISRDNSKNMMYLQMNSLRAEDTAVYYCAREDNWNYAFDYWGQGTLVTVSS VL: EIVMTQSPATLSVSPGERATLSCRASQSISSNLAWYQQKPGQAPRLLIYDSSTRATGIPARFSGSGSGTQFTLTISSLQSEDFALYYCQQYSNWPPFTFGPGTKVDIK" endpoint_result=0.16
binder="H4H6270P (antibody, human IgG4, V domains shown, H4H prefix = human IgG4 Fc) VH: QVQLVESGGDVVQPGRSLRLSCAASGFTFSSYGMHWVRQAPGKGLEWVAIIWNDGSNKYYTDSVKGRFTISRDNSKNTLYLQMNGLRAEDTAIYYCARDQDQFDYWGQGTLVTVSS VL: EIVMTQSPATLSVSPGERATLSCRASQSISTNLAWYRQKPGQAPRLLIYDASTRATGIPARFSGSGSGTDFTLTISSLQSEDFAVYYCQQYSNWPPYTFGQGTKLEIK" endpoint_result=0.06

The record that follows has no Reduction in Signal from Heparin at 300 sec shown yet.
INPUT: Requested field: Reduction in Signal from Heparin at 300 sec. Item: H4H2783N2 (antibody, human IgG4, V domains shown, H4H prefix = human IgG4 Fc) VH: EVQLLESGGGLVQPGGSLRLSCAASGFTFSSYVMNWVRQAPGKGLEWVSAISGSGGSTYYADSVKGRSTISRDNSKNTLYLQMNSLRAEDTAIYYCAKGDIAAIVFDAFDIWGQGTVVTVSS VL: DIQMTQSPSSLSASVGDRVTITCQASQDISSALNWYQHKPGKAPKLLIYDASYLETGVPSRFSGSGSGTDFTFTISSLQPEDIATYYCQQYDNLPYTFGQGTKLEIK
OUTPUT: 0.18
